assayed.target: BRG-1 (Homo sapiens, UniProt P51532)
Sequence (P51532 whole entry): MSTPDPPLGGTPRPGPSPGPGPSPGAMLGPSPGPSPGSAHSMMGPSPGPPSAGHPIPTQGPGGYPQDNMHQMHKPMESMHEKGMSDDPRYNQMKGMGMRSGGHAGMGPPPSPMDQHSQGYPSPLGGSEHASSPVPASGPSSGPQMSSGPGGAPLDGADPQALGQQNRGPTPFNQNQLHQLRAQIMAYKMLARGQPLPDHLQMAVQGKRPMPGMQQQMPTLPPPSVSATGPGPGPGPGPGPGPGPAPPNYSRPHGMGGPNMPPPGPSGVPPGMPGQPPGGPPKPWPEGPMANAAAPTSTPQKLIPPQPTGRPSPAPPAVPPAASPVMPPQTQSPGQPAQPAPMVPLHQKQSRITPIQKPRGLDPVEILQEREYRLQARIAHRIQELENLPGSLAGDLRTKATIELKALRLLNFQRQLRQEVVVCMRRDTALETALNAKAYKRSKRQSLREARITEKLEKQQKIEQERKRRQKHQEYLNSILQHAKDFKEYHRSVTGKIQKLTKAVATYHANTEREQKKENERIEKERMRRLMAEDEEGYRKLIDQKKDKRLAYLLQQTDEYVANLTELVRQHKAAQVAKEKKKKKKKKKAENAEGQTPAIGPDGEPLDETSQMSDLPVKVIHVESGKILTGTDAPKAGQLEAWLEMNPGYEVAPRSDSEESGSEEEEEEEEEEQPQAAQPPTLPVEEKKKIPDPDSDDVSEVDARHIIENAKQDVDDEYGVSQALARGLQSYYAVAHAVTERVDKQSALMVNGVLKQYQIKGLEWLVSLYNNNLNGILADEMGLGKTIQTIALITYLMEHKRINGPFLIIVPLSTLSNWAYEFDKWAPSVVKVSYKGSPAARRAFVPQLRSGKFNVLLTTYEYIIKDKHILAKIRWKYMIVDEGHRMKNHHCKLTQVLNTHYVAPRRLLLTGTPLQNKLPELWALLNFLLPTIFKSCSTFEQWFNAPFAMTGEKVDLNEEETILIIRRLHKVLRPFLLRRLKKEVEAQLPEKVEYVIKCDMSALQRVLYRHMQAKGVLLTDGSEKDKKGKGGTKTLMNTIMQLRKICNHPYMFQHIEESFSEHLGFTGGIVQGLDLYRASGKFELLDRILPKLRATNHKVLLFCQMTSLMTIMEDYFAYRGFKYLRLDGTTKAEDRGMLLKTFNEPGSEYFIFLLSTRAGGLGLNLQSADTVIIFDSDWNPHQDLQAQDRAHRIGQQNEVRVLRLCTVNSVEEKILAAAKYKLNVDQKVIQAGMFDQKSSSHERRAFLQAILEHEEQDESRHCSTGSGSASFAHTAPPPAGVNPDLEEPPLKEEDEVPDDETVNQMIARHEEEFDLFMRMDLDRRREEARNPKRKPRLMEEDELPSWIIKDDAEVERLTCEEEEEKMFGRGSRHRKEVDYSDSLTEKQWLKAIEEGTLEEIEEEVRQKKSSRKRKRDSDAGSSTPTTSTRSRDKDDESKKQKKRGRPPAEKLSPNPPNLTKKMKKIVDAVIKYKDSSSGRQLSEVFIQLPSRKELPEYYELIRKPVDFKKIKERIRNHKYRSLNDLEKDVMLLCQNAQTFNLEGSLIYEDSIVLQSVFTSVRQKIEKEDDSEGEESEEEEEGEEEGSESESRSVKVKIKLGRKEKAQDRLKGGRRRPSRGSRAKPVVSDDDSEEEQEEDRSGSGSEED
run.description: ATPase catalytic activity assay (ADP-Glo), BRG-1
pIC50: −log10 of the molar value.
measurement.label: pIC50

{"columns": ["compound", "measurement.label", "value.reported"],
 "data": [
  ["COc1nn(C2CCC2)cc1-c1ccc2cnc(CNC(=O)c3ccc4c(c3)[C@](C)(C#N)COC4)cc2n1 [Compound 200]", "pIC50", "6.00 to 6.30"]
]}

Fill blank: measured pIC50 of the compound C[C@@]1(C#N)COCc2ccc(C(=O)NCc3cc4nc(-c5ccn6nccc6n5)ccc4cn3)cc21 [Compound 447] is ____.
6.00 to 6.30

Fill blank: measured pIC50 of the compound C[C@@]1(F)COCc2ccc(C(=O)NCc3cc4nc(-c5cccc(C6(O)CCOCC6)n5)ccc4cn3)cc21 [Compound 302] is ____.
6.00 to 6.30

Fill blank: measured pIC50 of the compound C[C@@]1(C#N)COCc2ccc(C(=O)NCc3cc4nc(-c5cccc6c5ccn6C5CC5)ccc4cn3)cc21 [Compound 173] is ____.
6.30 to 7.00
